# System: cancer cell lines
# PROCEDURE SUMMARY: Cancer cell proliferation activity (CellTiterGlo, 72 h)
# Type: cell-based
# SETTINGS: Homo sapiens, BXPC-3, 72 h, BXPC3 (pancreas), 72 h; read-out: IC50 cell proliferation
pIC50: −log10 of the molar value.
REPORTED ENDPOINT: pIC50

Recorded results for 4 compounds are shown here.
C[C@]1(CO)O[C@@H](n2ccc(N)nc2=O)[C@@H](O)[C@@H]1O [Cpd. No. 193] ... 5.37
Nc1nc(F)nc2c1ncn2[C@H]1C[C@H](O)[C@@H](CO)O1 [compound 171] ... 6.37
C[C@]1(CO)O[C@@H](n2cnc3c(N)nc(F)nc32)[C@H](O)[C@@H]1O [Cpd. No. 178] ... 6.28
Nc1nc(F)nc2c1ncn2[C@@H]1O[C@H](CO)[C@@H](O)[C@H]1O [compound 184] ... 7.10

[a] Nc1ccn([C@H]2C[C@H](O)[C@](CO)(CF)O2)c(=O)n1 [Cpd. No. 198]
[b] Nc1nc(=O)n([C@H]2C[C@H](O)[C@](CO)(CF)O2)cc1F [Cpd. No. 197]
INPUT: Between a and b , whose measured pIC50 reads higher? Bench note: the answer is the label of the chosen record.
OUTPUT: b

* * *

# System: cancer cell lines
# PROCEDURE SUMMARY: Cancer cell proliferation activity (CellTiterGlo, 72 h)
# Type: cell-based
# SETTINGS: Homo sapiens, IGROV-1, 72 h, IGROV1 cell line (ovary), 72 h; read-out: IC50
REPORTED ENDPOINT: IC50 (nM)

C[C@]1(CO)O[C@@H](n2cc(F)c(=O)[nH]c2=O)C[C@@H]1O ... 2990

[I] CC(C)C[C@]1(CO)O[C@@H](n2cnc3c(N)nc(F)nc32)C[C@@H]1O
[II] C[C@]1(CO)O[C@@H](n2cnc3c(N)nc(F)nc32)C[C@@H]1O
INPUT: Between I and II , whose measured IC50 reads higher? Bench note: the answer is the label of the chosen record.
OUTPUT: I

* * *

# Tested on: cancer cell lines
# PROCEDURE SUMMARY: Cancer cell proliferation activity (CellTiterGlo, 72 h)
# Format: cell-based
# SETTINGS: Homo sapiens, MINO, 72 h, MINO cell line (hematological), 72 h; read-out: IC50
REPORTED ENDPOINT: IC50 (nM)

Recorded results for 3 compounds are shown here.
CC[C@]1(CO)O[C@@H](n2cnc3c(N)nc(F)nc32)[C@H](O)[C@@H]1O ... 30
CC[C@]1(CO)O[C@@H](n2cc(F)c(N)nc2=O)C[C@@H]1O ... 250
CCC[C@]1(CO)O[C@@H](n2cnc3c(N)nc(F)nc32)C[C@@H]1O ... 150

[A] C=C[C@]1(CO)O[C@@H](Nc2[nH]c(=O)ncc2Br)C[C@@H]1O
[B] C[C@]1(CO)O[C@@H](n2cc(F)c(N)nc2=O)C[C@@H]1O
[C] C[C@]1(CO)O[C@@H](n2cc(F)c(=O)[nH]c2=O)C[C@@H]1O
INPUT: List the 3 entries from lowest IC50 to highest IC50 value. Quick reminder: the answer is the labels in the order asked.
OUTPUT: B, C, A

* * *

# Test system: cancer cell lines
# PROCEDURE SUMMARY: Cancer cell proliferation activity (CellTiterGlo, 72 h)
# Assay type: cell-based
# SETTINGS: Homo sapiens, SF-295, 72 h, SF295 cell line (brain), 72 h; read-out: IC50
# Protocol: Dose response relationships on cell proliferation was assessed for representative Compounds of the Disclosure on cancer cell lines. […] Cells were cultured in the appropriate media. […] After incubation for 72 h at 37° C. at 5% or 10% CO2 dependent on the medium, cell plates were equilibrated to room temperature for one hour, CellTiterGlo reagent (Promega) was added and luminescence was measured approximately an hour later using a luminometer. […]
pIC50: −log10 of the molar value.
REPORTED ENDPOINT: pIC50

[P] COC[C@]1(CO)O[C@@H](n2cnc3c(N)nc(F)nc32)C[C@@H]1O [Cpd. No. 140]
[Q] O=c1[nH]c(=O)n([C@H]2C[C@H](O)[C@](CO)(CF)O2)cc1F [Cpd. No. 112]
INPUT: Between item P and item Q , which reported pIC50 is smaller? Bench note: the answer is the label of the chosen record.
OUTPUT: Q

* * *

# Tested on: cancer cell lines
# PROCEDURE SUMMARY: Cancer cell proliferation activity (CellTiterGlo, 72 h)
# Format: cell-based
# SETTINGS: Homo sapiens, Calu-6, 72 h, CALU6 cell line (lung), 72 h; read-out: IC50
pIC50: −log10 of the molar value.
REPORTED ENDPOINT: pIC50

CC[C@]1(CO)O[C@@H](n2cnc3c(N)nc(F)nc32)[C@H](O)[C@@H]1O [Cpd. No. 173] ... 7.22

[I] CC[C@]1(CO)O[C@@H](n2cnc3c(N)nc(F)nc32)C[C@@H]1O [Cpd. No. 1]
[II] Nc1ccn([C@@H]2O[C@H](CO)[C@@H](O)C2(F)F)c(=O)n1 [gemcitabine, reference compound]
[III] CC(C)C[C@]1(CO)O[C@@H](n2cnc3c(N)nc(F)nc32)C[C@@H]1O [Cpd. No. 133]
[IV] C[C@]1(CO)O[C@@H](n2cc(F)c(N)nc2=O)C[C@@H]1O [Cpd. No. 4]
INPUT: List the 4 entries from lowest pIC50 to highest pIC50 value. Quick reminder: the answer is the labels in the order asked.
OUTPUT: III, I, IV, II
(III: 5.51, I: 6.19, IV: 6.60, II: 8.21)

[1] C[C@]1(CO)O[C@@H](n2cnc3c(N)nc(F)nc32)C[C@@H]1O [Cpd. No. 126]
[2] Nc1nc(F)nc2c1ncn2[C@H]1C[C@H](O)[C@](CO)(CF)O1 [compound 150]
INPUT: Between item 1 and item 2 , which reported pIC50 is smaller? Bench note: the answer is the label of the chosen record.
OUTPUT: 2
(2: 5.39, 1: 6.21)

* * *

# Test system: cancer cell lines
# PROCEDURE SUMMARY: Cancer cell proliferation activity (CellTiterGlo, 72 h)
# Assay type: cell-based
# SETTINGS: Homo sapiens, Caco-2, 72 h, CACO2 (colon), 72 h; read-out: IC50 cell proliferation
REPORTED ENDPOINT: IC50 (µM)

Recorded results for 3 molecules are shown here.
C[C@]1(CO)O[C@@H](n2cnc3c(N)nc(F)nc32)[C@H](O)[C@@H]1O [Cpd. No. 178] ... 0.16
C#C[C@]1(CO)O[C@@H](n2cc(Cl)c(N)nc2=O)C[C@@H]1O [Cpd. No. 109] ... 3.28
Nc1nc(F)nc2c1ncn2[C@@H]1O[C@H](CO)[C@@H](O)[C@@H]1O [compound 170] ... 49.2

[a] Nc1nc(F)nc2c1ncn2[C@H]1C[C@H](O)[C@](CO)(C2CC2)O1 [Cpd. No. 5]
[b] O=c1[nH]c(=O)n([C@H]2C[C@H](O)[C@@H](CO)O2)cc1F [compound 185]
[c] Nc1nc(F)nc2c1ncn2[C@H]1C[C@H](O)[C@@H](CO)O1 [compound 171]
[d] CCC[C@]1(CO)O[C@@H](n2cnc3c(N)nc(F)nc32)[C@H](O)[C@@H]1O [compound 195]
[e] Nc1nc(F)nc2c1ncn2[C@H]1C[C@H](O)[C@](CO)(CC2CC2)O1 [Cpd. No. 130]
INPUT: List the 5 entries from lowest IC50 to highest IC50 value. Quick reminder: the answer is the labels in the order asked.
OUTPUT: b, d, e, c, a

* * *

# Tested on: cancer cell lines
# PROCEDURE SUMMARY: Cancer cell proliferation activity (CellTiterGlo, 72 h)
# Format: cell-based
# SETTINGS: Homo sapiens, HEK293, 72 h, HEK293 cell line (kidney), 72 h; read-out: IC50
pIC50: −log10 of the molar value.
REPORTED ENDPOINT: pIC50

INPUT: pIC50 for O=c1[nH]c(=O)n([C@H]2C[C@H](O)[C@](CO)(CF)O2)cc1F [Cpd. No. 112] ?
OUTPUT: < 4.30

INPUT: pIC50 for Cc1cn([C@H]2C[C@H](O)[C@@](C#N)(CO)O2)c(=O)[nH]c1=O [Cpd. No. 123] ?
OUTPUT: < 4.30

INPUT: pIC50 for CC[C@]1(CO)O[C@@H](n2cc(F)c(N)nc2=O)C[C@@H]1O [Cpd. No. 2] ?
OUTPUT: < 4.30

* * *

// reported IC50 per item
# Test system: cancer cell lines
# PROCEDURE SUMMARY: Cancer cell proliferation activity (CellTiterGlo, 72 h)
# Type: cell-based
# SETTINGS: Homo sapiens, IMR-90, 72 h, IMR90 (lung), 72 h; read-out: IC50 cell proliferation

Nc1nc(=O)n([C@H]2C[C@H](O)[C@](CO)(CF)O2)cc1F [Cpd. No. 197] ... > 50 µM
C[C@]1(CO)O[C@@H](n2ccc(N)nc2=O)C(F)(F)[C@@H]1O [Cpd. No. 190] ... > 50 µM

INPUT: IC50 for Nc1nc(=O)n([C@H]2C[C@H](O)[C@@H](CO)O2)cc1F [compound 169] ?
OUTPUT: > 50 µM
